test_protocol: AUC (0-infinity) in healthy human at 100 mg administered as single dose suspension
Assay type: ADME, organism-based
Parameters: dose 100 mg, time infinity
measurement_parameters: plasma
value_kind: AUC(0-inf) (µg·h/mL)
Answer in µg·h/mL, number only, no unit symbol.

Problem: Look up and state reported AUC(0-inf) for C[C@@H]1CCO[C@H]2Cn3cc(C(=O)NCc4ccc(F)cc4F)c(=O)c([O-])c3C(=O)N12.[Na+] [DOLUTEGRAVIR SODIUM]
Solution: 136

----------
test_protocol: AUC (0-t) in healthy human at 25 mg administered as single dose suspension
Format: ADME, organism-based
measurement_parameters: plasma
value_kind: AUC(0-t) (ng·h/mL)
Answer in ng·h/mL, number only, no unit symbol.

Problem: Look up and state reported AUC(0-t) for C[C@@H]1CCO[C@H]2Cn3cc(C(=O)NCc4ccc(F)cc4F)c(=O)c([O-])c3C(=O)N12.[Na+] [DOLUTEGRAVIR SODIUM]
Solution: 34300
